Answer each item with its documented shrunken log2 fold change.
system: Escherichia coli TOP10; assay: shrunken log2 fold change of peptide-encoding DNA abundance (4.5 h post-induction vs induction); higher = less antimicrobial activity (less host growth inhibition); conditions: time post-induction: 4.5 h; library: site-saturation at positions 5, 18, 19, 20
No unit in the answer, only the number.

Asked: Given the sequence RRIRLRPPRLPRPRPRPGSVPRP , write its reported shrunken log2 fold change.
Given back: 0.0433

Asked: Answer with the recorded shrunken log2 fold change for the sequence listed here: RRIRDRPPRLPRPRPRPPWCPRP
Given back: 0.203

Asked: Tell us which shrunken log2 fold change value is on record for RRIRNRPPRLPRPRPRPNIFPRP
Given back: -0.29

Asked: State, in one line, measured shrunken log2 fold change of RRIRVRPPRLPRPRPRPATKPRP
Given back: 0.153

Asked: Kindly indicate its recorded shrunken log2 fold change. Item: RRIRVRPPRLPRPRPRPFVMPRP
Given back: 0.0296

Asked: Note down shrunken log2 fold change recorded for RRIRHRPPRLPRPRPRPNILPRP
Given back: -0.448

Asked: Give the measured shrunken log2 fold change for RRIRKRPPRLPRPRPRPCKSPRP
Given back: -0.0499

Asked: Using the record for RRIRHRPPRLPRPRPRPMEHPRP , state its measured shrunken log2 fold change.
Given back: -0.337

Asked: Let me know recorded shrunken log2 fold change for RRIRNRPPRLPRPRPRPMTSPRP , thanks.
Given back: -0.0113

Asked: Read the entry RRIRLRPPRLPRPRPRPEGQPRP and write its reported shrunken log2 fold change.
Given back: -0.118

Asked: Please indicate shrunken log2 fold change recorded for RRIRARPPRLPRPRPRPEKIPRP
Given back: 0.649

Asked: For the sequence RRIRLRPPRLPRPRPRPAGEPRP , report shrunken log2 fold change.
Given back: -0.0968

Asked: For the sequence RRIRTRPPRLPRPRPRPRNKPRP , give its measured shrunken log2 fold change value.
Given back: -0.342

Asked: Name the recorded shrunken log2 fold change of the item RRIRKRPPRLPRPRPRPLSMPRP in your answer.
Given back: 0.0129

Asked: Item RRIRSRPPRLPRPRPRPEYDPRP : provide shrunken log2 fold change
Given back: 0.0801

Asked: Please look at this sequence and report its shrunken log2 fold change: RRIRWRPPRLPRPRPRPVQFPRP
Given back: 0.0316

Asked: Assign shrunken log2 fold change to the following record: RRIRDRPPRLPRPRPRPCPVPRP
Given back: -0.426

Asked: Consider the sequence RRIRDRPPRLPRPRPRPVSIPRP . State its measured shrunken log2 fold change.
Given back: -0.105

Asked: Output measured shrunken log2 fold change for this item: RRIRDRPPRLPRPRPRPPHWPRP
Given back: 0.322

Asked: State, in one line, measured shrunken log2 fold change of RRIRRRPPRLPRPRPRPSPHPRP
Given back: 0.334

Asked: Respond only with shrunken log2 fold change recorded for RRIRQRPPRLPRPRPRPYRMPRP
Given back: 3.17

Asked: State its shrunken log2 fold change for this sequence: RRIRYRPPRLPRPRPRPNECPRP
Given back: 0.0256

Asked: Hello, please tell me recorded shrunken log2 fold change for this one: RRIRHRPPRLPRPRPRPVNHPRP
Given back: -0.361

Asked: Tell me its shrunken log2 fold change given RRIRFRPPRLPRPRPRPRKRPRP as the entry.
Given back: 0.263

Asked: State its shrunken log2 fold change: RRIRWRPPRLPRPRPRPFTRPRP
Given back: -0.00433

Asked: Tell us which shrunken log2 fold change value is on record for RRIRWRPPRLPRPRPRPERWPRP
Given back: 1.14

Asked: Check the records and state shrunken log2 fold change for RRIRWRPPRLPRPRPRPILDPRP
Given back: 0.187

Asked: Quick one: give measured shrunken log2 fold change for RRIRRRPPRLPRPRPRPFISPRP
Given back: 0.0236

Asked: Could you please provide reported shrunken log2 fold change for RRIRWRPPRLPRPRPRPEIFPRP ? Thanks!
Given back: 0.0932

Asked: Assign shrunken log2 fold change to the following record: RRIRERPPRLPRPRPRPTYIPRP
Given back: -1.02

Asked: Hello, please tell me recorded shrunken log2 fold change for this one: RRIRTRPPRLPRPRPRPSFPPRP
Given back: -0.261

Asked: Tell me shrunken log2 fold change reported for RRIRVRPPRLPRPRPRPRLAPRP
Given back: 0.684

* * *

system: Escherichia coli TOP10; assay: shrunken log2 fold change of peptide-encoding DNA abundance (4.5 h post-induction vs induction); higher = less antimicrobial activity (less host growth inhibition); conditions: time post-induction: 4.5 h; library: site-saturation at positions 5, 18, 19, 20;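 note: peptides expressed intracellularly from a pBAD plasmid library in pooled LB shake-flask culture, induced with 0.3% L-arabinose, DNA abundance read by NGS, three biological replicates, DESeq2 with apeglm shrinkage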
Response key: class 1 means shrunken log2 fold change >= 0.03; class 0 means shrunken log2 fold change < 0.03.

Asked: Is reported shrunken log2 fold change greater than or equal to 0.03 here: RRIRTRPPRLPRPRPRPICMPRP
Given back: class 0

Asked: State whether the measured shrunken log2 fold change reaches 0.03, counting equality as reaching it, for RRIRMRPPRLPRPRPRPFWPPRP
Given back: class 1

Asked: Hi, just wondering whether RRIRKRPPRLPRPRPRPTQIPRP shows shrunken log2 fold change of 0.03 or higher.
Given back: class 1

Asked: Determine whether measured shrunken log2 fold change meets or exceeds 0.03 for RRIRNRPPRLPRPRPRPQNNPRP
Given back: class 0

Asked: Kindly determine if shrunken log2 fold change recorded for RRIRPRPPRLPRPRPRPFVIPRP is above or exactly 0.03.
Given back: class 0

Asked: Check this sequence for shrunken log2 fold change at or above 0.03: RRIRSRPPRLPRPRPRPEGFPRP
Given back: class 1

Asked: Entry RRIRGRPPRLPRPRPRPGHGPRP : is its shrunken log2 fold change no less than 0.03?
Given back: class 1

Asked: Check this sequence for shrunken log2 fold change at or above 0.03: RRIRSRPPRLPRPRPRPEQSPRP
Given back: class 1

Asked: Check this sequence for shrunken log2 fold change at or above 0.03: RRIRPRPPRLPRPRPRPGSMPRP
Given back: class 0

Asked: Dear colleague, could you confirm whether RRIRARPPRLPRPRPRPNNAPRP has shrunken log2 fold change at or above 0.03?
Given back: class 0

Asked: Could you tell me if the measured shrunken log2 fold change of RRIRDRPPRLPRPRPRPMNPPRP reaches 0.03 or more?
Given back: class 0

Asked: Item RRIRERPPRLPRPRPRPPLFPRP with shrunken log2 fold change of 0.03 or above?
Given back: class 1

Asked: Check if shrunken log2 fold change >= 0.03 (inclusive). Item: RRIRARPPRLPRPRPRPNKVPRP
Given back: class 0

Asked: Does shrunken log2 fold change meet or surpass 0.03 for RRIRWRPPRLPRPRPRPEYEPRP ?
Given back: class 0

Asked: Record RRIRLRPPRLPRPRPRPLGKPRP ; criterion: shrunken log2 fold change no lower than 0.03. Met?
Given back: class 0

Asked: Please indicate if the recorded shrunken log2 fold change for RRIRERPPRLPRPRPRPWNSPRP meets or exceeds 0.03.
Given back: class 0

Asked: Could you verify whether the entry RRIRDRPPRLPRPRPRPGMRPRP shows shrunken log2 fold change of no less than 0.03?
Given back: class 1

Asked: Would you say RRIRFRPPRLPRPRPRPVHDPRP shows shrunken log2 fold change at minimum 0.03?
Given back: class 0

Asked: Dear colleague, could you confirm whether RRIRVRPPRLPRPRPRPCQEPRP has shrunken log2 fold change at or above 0.03?
Given back: class 0

Asked: Decide: shrunken log2 fold change of RRIRHRPPRLPRPRPRPNWHPRP >= 0.03?
Given back: class 0

Asked: Check this sequence for shrunken log2 fold change at or above 0.03: RRIRIRPPRLPRPRPRPRRYPRP
Given back: class 1

Asked: Does RRIRQRPPRLPRPRPRPQYIPRP have a reported shrunken log2 fold change of at least 0.03?
Given back: class 0

Asked: Threshold query (shrunken log2 fold change >= 0.03) on RRIRARPPRLPRPRPRPNCNPRP
Given back: class 0

Asked: Hello, I need to know if RRIRGRPPRLPRPRPRPTAVPRP has measured shrunken log2 fold change not below 0.03. Thanks!
Given back: class 1

Asked: I'd appreciate it if you could say whether RRIRDRPPRLPRPRPRPSTQPRP has shrunken log2 fold change at least equal to 0.03.
Given back: class 1

Asked: Does shrunken log2 fold change meet or surpass 0.03 for RRIRERPPRLPRPRPRPDGAPRP ?
Given back: class 1

Asked: Does shrunken log2 fold change meet or surpass 0.03 for RRIRWRPPRLPRPRPRPMYTPRP ?
Given back: class 1

Asked: Confirm if shrunken log2 fold change reported for the sequence RRIRVRPPRLPRPRPRPAAGPRP is 0.03 or above.
Given back: class 1

Asked: Textbook exercise: given the entry RRIRTRPPRLPRPRPRPSYTPRP , state whether its shrunken log2 fold change is greater than or equal to 0.03.
Given back: class 0

Asked: Identify whether the reported shrunken log2 fold change of the following sequence is 0.03 or greater: RRIRTRPPRLPRPRPRPTGAPRP
Given back: class 1

Asked: Please tell me: is the sequence RRIRYRPPRLPRPRPRPDEPPRP at or over 0.03 in terms of shrunken log2 fold change?
Given back: class 0
